Would you mind telling me the reported IC50 of each entry?
Target desc: CDK12 (aa686-1082)/Cyclin K complex (Homo sapiens, UniProt Q9NYV4)
Construct: CDK12 (aa686-1082)/Cyclin K complex
Sequence (Q9NYV4 686-1082): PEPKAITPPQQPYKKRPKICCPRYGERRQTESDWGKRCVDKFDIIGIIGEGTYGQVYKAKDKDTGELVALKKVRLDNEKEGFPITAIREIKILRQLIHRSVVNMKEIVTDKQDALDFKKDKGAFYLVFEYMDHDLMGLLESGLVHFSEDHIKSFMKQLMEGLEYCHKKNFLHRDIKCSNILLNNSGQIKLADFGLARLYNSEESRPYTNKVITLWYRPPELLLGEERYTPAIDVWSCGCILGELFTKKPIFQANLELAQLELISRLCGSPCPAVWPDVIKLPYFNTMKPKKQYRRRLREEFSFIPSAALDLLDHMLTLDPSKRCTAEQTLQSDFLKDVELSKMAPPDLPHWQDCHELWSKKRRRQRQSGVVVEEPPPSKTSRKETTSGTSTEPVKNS
Sequence (O75909 whole entry partner, the tested form may be a part): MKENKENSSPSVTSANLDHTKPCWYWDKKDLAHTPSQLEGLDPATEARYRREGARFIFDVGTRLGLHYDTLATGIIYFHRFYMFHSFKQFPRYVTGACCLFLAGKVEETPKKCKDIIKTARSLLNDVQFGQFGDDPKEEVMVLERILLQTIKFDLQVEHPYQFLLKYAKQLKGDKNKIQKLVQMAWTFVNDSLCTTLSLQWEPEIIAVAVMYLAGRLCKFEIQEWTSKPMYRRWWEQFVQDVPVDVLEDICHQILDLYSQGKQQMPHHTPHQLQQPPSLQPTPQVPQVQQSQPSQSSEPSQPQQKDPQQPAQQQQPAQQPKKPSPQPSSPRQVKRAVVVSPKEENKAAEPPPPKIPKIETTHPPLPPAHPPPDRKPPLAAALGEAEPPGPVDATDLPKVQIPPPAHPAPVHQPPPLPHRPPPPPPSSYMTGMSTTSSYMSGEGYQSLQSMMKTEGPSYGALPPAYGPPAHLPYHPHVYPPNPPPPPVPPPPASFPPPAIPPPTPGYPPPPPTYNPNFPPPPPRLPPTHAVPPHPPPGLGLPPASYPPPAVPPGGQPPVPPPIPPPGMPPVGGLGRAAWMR
Test protocol: CDK12 kinase inhibition assay (Caliper/LabChip EZ Reader)
Condition notes: CDK12 (aa686-1082)/Cyclin K 50 nM, ATP 2 mM, 3 hr at 27° C.

{"Compound": "N#Cc1ccc2c(-c3nc(N[C@@H]4CNCC[C@H]4F)ncc3C(F)(F)F)c[nH]c2c1", "Outcome measure": "IC50", "Experimental result": "200 to 5000 nM"}
{"Compound": "N#Cc1cn(-c2ccc3c(-c4nc(NC5CCCNC5)ncc4C(F)(F)F)c[nH]c3c2)cn1 (centres unmarked)", "Outcome measure": "IC50", "Experimental result": "200 to 5000 nM"}
{"Compound": "CCc1cnc(NC2CCCNC2)nc1-c1n[nH]c2nc(C#N)ccc12 (centres unmarked)", "Outcome measure": "IC50", "Experimental result": "200 to 5000 nM"}
{"Compound": "Cc1ccc2[nH]cc(-c3nc(NC4CCCNC4)ncc3Cl)c2c1 (centres unmarked)", "Outcome measure": "IC50", "Experimental result": "200 to 5000 nM"}
{"Compound": "FC(F)(F)c1cnc(NC2CCCNC2)nc1-c1c[nH]c2c(-c3cn[nH]c3)cccc12 (centres unmarked)", "Outcome measure": "IC50", "Experimental result": "20 to 200 nM"}
{"Compound": "N#Cc1ccc2c(-c3nc(NC4CCCNC4)ncc3Cl)c[nH]c2c1 (centres unmarked)", "Outcome measure": "IC50", "Experimental result": "200 to 5000 nM"}
{"Compound": "FC(F)(F)c1cnc(N[C@H]2CCCNC2)nc1-c1c[nH]c2cc(-c3nccs3)ccc12", "Outcome measure": "IC50", "Experimental result": "200 to 5000 nM"}
{"Compound": "Cc1nn(C)cc1-c1ccc2c(-c3nc(N[C@H]4CCCNC4)ncc3C(F)(F)F)c[nH]c2c1", "Outcome measure": "IC50", "Experimental result": "200 to 5000 nM"}
{"Compound": "FC(F)(F)c1cnc(NC2CCCNC2)nc1-c1c[nH]c2ccc(-c3cn[nH]c3)cc12 (centres unmarked)", "Outcome measure": "IC50", "Experimental result": "200 to 5000 nM"}
{"Compound": "Cc1cccc2c(-c3nc(NC4CCCNC4)ncc3Cl)c[nH]c12 (centres unmarked)", "Outcome measure": "IC50", "Experimental result": "20 to 200 nM"}

Dear reader, for each entry below, please note its IC50.
1. CS(=O)(=O)c1c(C#N)ccc2c(-c3nc(NC4CCCNC4)ncc3Cl)c[nH]c12 (centres unmarked)
2. COC1CCN(C(=O)c2ccc3c(-c4nc(NC5CCCNC5)ncc4C(F)(F)F)c[nH]c3c2)C1 (centres unmarked) [Compound 281]

A:
1. 200 to 5000 nM
2. 200 to 5000 nM

Give IC50 for each listed item.
1. CC1(O)CCC(c2cccc3c(-c4nc(NC5CCCNC5)ncc4C(F)(F)F)c[nH]c23)CC1 (centres unmarked)
2. CC1CCNCC1Nc1ncc(C(F)(F)F)c(-c2c[nH]c3ccccc23)n1 (centres unmarked) [Compound 285]
3. CNC(=O)c1cccc2c(-c3nc(NC4CCCNC4)ncc3C(F)(F)F)cn(C)c12 (centres unmarked)
4. FC(F)(F)c1cnc(NC2CCCNC2)nc1-c1c[nH]c2cnc(Cl)cc12 (centres unmarked)
5. Clc1cnc(NC2(c3ccccc3)CCCNC2)nc1-c1c[nH]c2ccccc12 (centres unmarked)

A:
1: 200 to 5000 nM; 2: ≥ 5000 nM; 3: ≥ 5000 nM; 4: 200 to 5000 nM; 5: ≥ 5000 nM

Just for reference, patent US20230000870A1 is where these values come from.
